Measured T/C, listed per entry for reference.
Tested on: P388 leukemia ip, CD2F1 mice, survival T/C
Protocol notes: NCI In Vivo Anticancer Drug Screen. Data for tumor model P388 Leukemia (intraperitoneal) in CD2F1 (CDF1) mice
Condition summary: endpoint: median survival time; dose: 60.0 mg/kg/injection; schedule: Q01DX005 (ip); vehicle: saline with Tween-80; higher = longer survival
Inconclusive results and toxic doses are left out.

Compound	T/C
COc1ccc2c(O)c(S(=O)(=O)c3ccc(Cl)cc3)c(=O)oc2c1	102 % of control
COc1ccc(-n2nc3c(ccc4ccccc43)c2NC2CCCCC2)cc1	104 % of control
CSCCC(NC(=O)c1cnc2ccccc2c1)C(N)=O (centres undefined)	103 % of control
NCCn1[nH]c(=O)c2cnccc2c1=O	95 % of control
